# target.under.test: T1, ZIKV-VLP (Native Antigen Inc.) (Zika virus)
# T1 construct: also called Zika VLP; ZVLP
# protocol.text: BLI binning on ZIKV-VLP; 1st mAb: 11-3
Could you please report measured response of 2nd mAb for the items listed next?

In one line, give reported response of 2nd mAb of the entry anti-ZIKV antibody 242-3 (antibody, V domains shown, also called clone 242-3) VH: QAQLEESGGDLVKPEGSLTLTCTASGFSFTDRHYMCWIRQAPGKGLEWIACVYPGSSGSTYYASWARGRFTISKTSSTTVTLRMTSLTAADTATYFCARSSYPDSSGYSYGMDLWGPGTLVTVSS VL: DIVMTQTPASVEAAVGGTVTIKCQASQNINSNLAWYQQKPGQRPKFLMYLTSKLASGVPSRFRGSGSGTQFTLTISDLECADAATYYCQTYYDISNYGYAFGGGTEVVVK .
0.4

In one line, give reported response of 2nd mAb of the entry anti-ZIKV antibody 289-3 (antibody, V domains shown, also called clone 289-3; subclone 289-3) VH: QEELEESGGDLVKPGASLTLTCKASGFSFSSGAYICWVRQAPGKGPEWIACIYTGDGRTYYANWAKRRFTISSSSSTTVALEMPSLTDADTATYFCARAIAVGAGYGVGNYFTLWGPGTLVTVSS VL: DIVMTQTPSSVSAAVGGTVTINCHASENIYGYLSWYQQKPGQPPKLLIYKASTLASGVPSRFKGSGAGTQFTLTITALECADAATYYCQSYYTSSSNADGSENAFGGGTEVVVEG .
0.52
